Values from ChEMBL document CHEMBL5252522

Observed IC50 values for Histone deacetylase 8 (Homo sapiens, UniProt Q9BY41) are listed in what follows.
// return numeric value only (unit: nM, not printed)

Example compounds with recorded IC50:
sampleSmiles	measurementTarget	unitText	IC50
O=C(NO)c1ccc(CC(=O)N(CCO)c2ccccc2)cc1	Histone deacetylase 8 (Homo sapiens, UniProt Q9BY41)	nM	2800
[11CH3]n1cc(CCNCc2ccc(/C=C/C(=O)NO)cc2)c2ccccc21	Histone deacetylase 8 (Homo sapiens, UniProt Q9BY41)	nM	1040

IC50 value, target or system Histone deacetylase 8 (Homo sapiens, UniProt Q9BY41), for CN(CCc1ccccc1)S(=O)(=O)c1cccc(/C=C/C(=O)NO)c1 : 150

---

measurementTarget: Histone deacetylase 5 (Homo sapiens, UniProt Q9UQL6)
Sequence (Q9UQL6 whole entry): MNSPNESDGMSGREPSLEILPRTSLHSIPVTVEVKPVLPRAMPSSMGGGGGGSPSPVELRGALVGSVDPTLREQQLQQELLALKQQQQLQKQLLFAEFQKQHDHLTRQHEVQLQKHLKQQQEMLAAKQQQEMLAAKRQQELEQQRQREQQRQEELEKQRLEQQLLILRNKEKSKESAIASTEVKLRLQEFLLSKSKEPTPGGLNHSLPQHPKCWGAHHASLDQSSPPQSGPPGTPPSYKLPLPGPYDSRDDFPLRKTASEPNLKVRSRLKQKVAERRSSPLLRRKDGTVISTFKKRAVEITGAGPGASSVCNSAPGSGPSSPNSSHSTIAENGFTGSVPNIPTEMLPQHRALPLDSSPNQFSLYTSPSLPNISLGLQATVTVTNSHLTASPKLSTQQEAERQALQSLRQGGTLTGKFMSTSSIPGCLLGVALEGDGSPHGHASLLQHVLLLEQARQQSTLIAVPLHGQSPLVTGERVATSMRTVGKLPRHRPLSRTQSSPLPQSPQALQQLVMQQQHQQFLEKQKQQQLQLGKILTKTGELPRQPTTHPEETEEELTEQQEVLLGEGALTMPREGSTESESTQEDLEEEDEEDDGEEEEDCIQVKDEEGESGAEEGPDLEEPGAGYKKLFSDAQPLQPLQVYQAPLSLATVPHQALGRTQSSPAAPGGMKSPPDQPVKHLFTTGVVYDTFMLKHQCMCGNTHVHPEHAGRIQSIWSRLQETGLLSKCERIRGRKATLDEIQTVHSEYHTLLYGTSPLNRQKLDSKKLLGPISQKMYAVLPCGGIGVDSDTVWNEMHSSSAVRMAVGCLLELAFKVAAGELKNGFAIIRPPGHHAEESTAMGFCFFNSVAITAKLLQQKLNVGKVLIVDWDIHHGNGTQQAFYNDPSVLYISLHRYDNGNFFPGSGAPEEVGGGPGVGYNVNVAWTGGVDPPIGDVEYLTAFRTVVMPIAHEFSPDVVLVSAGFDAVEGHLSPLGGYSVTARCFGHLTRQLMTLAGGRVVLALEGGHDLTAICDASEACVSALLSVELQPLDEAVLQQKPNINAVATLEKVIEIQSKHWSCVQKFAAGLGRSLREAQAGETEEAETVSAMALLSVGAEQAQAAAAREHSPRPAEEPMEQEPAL
valueKind: IC50 (µM)
Give just the number in µM; leave the unit off.

Lab note: measured IC50 of [11CH3]n1cc(CCNCc2ccc(/C=C/C(=O)NO)cc2)c2ccccc21 was 0.099

---

measurementTarget: Histone deacetylase 4 (Homo sapiens, UniProt P56524)
Sequence (P56524 whole entry): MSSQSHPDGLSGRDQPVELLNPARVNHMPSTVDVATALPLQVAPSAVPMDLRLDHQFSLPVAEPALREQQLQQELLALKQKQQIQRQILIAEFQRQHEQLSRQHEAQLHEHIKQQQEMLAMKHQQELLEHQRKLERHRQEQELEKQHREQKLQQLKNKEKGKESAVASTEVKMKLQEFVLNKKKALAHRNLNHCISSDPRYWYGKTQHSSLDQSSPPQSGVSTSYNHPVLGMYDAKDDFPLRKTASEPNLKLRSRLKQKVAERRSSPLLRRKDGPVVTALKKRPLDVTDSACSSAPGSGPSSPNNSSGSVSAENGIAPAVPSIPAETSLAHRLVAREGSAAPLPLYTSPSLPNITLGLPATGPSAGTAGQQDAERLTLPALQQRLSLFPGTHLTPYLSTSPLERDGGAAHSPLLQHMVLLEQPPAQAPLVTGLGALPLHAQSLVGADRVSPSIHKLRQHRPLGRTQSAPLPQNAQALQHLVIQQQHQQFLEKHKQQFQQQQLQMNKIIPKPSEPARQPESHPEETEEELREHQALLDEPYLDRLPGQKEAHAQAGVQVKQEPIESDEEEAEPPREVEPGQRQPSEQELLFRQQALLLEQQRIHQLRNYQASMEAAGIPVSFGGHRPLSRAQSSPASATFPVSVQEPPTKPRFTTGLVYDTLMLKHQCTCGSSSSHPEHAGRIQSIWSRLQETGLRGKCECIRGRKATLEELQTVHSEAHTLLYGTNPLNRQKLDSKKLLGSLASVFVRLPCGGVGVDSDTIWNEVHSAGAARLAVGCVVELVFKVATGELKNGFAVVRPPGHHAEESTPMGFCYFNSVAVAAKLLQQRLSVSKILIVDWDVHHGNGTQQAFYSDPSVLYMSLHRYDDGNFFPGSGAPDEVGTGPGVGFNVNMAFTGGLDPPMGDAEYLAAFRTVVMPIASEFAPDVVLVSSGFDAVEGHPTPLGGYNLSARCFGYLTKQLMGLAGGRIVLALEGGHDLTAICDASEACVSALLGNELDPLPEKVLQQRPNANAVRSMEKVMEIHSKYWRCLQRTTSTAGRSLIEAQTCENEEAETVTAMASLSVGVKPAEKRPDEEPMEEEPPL
valueKind: pIC50
Answer as the number alone; pIC50 is minus log10 of concentration in mol/L.

Noted pIC50 for [11CH3]n1cc(CCNCc2ccc(/C=C/C(=O)NO)cc2)c2ccccc21 , tested on Histone deacetylase 4 (Homo sapiens, UniProt P56524): 6.18

---

measurementTarget: Protein deacetylase HDAC6 (Homo sapiens)
Sequence (Q9UBN7 whole entry): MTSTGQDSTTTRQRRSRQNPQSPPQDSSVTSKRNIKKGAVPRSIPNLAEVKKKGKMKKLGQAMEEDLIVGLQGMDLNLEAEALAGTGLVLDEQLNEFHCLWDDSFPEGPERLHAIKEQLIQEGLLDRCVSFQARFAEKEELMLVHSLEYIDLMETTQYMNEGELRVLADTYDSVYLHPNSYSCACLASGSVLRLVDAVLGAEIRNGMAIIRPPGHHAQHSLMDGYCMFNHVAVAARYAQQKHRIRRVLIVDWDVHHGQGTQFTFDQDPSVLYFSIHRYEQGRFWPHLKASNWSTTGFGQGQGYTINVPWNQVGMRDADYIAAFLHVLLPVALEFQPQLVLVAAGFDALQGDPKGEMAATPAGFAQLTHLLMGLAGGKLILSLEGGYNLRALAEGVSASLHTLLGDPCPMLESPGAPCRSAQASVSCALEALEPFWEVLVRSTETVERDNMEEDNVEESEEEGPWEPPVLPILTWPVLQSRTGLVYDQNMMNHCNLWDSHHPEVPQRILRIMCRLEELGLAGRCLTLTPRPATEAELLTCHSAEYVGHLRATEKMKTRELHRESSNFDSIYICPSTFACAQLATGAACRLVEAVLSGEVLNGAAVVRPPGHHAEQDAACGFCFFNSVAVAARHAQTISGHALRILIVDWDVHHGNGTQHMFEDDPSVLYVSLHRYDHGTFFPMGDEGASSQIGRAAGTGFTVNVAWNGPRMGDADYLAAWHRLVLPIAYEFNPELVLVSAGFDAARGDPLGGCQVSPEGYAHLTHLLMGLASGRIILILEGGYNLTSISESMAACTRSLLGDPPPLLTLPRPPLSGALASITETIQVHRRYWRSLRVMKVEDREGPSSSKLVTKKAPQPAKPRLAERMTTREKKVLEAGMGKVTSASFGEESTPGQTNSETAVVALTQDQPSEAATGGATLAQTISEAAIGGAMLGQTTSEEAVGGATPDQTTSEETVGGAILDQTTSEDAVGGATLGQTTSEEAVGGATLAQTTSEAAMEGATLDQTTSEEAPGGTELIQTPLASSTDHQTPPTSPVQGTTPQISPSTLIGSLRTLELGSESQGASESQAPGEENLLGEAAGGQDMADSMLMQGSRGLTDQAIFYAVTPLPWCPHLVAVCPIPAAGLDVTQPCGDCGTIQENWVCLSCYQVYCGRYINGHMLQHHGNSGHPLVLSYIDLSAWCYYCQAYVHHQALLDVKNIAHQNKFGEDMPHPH
valueKind: IC50 (nM)
Numbers only here, please. The scale is nM.

sampleSmiles	measurementTarget	unitText	IC50
COc1cc2c(Nc3cccc(/C=C/C(=O)NO)c3)ncnc2cc1OCCCN1CCOCC1	Protein deacetylase HDAC6 (Homo sapiens)	nM	560
O=C(/C=C/c1cccc(Nc2ncnc3cc4c(cc23)OCCO4)c1)NO	Protein deacetylase HDAC6 (Homo sapiens)	nM	560

Could you now consider this next compound?
IC50 in this record for [11CH3]n1cc(CCNCc2ccc(/C=C/C(=O)NO)cc2)c2ccccc21 : 1.6
